- methodSummary: Selectivity index, ratio of CC50 for human MRC5 cells to IC50 for Mycobacterium tuberculosis H37Ra ATCC 25177 harboring lux gene
- Format: toxicity
- conditionContext: read-out: Ratio CC50/IC50
The following compounds are listed with their measured selectivity ratio values.

smilesCode: CCOC(=O)[C@H](CC(C)C)NP(=O)(CCCC(=O)N(C)OCc1ccc(Cl)cc1)N[C@@H](CC(C)C)C(=O)OCC
valueComparator: =
selectivity ratio: 0.37
--
smilesCode: CCOC(=O)[C@H](CC(C)C)NP(=O)(CCCC(=O)N(C)O)N[C@@H](CC(C)C)C(=O)OCC
valueComparator: >
selectivity ratio: 2.2
--
smilesCode: CCOC(=O)[C@H](CC(C)C)NP(=O)(CCCC(=O)N(C)OCc1ccc(-c2ccccc2)cc1)N[C@@H](CC(C)C)C(=O)OCC
valueComparator: =
selectivity ratio: 0.17
--
smilesCode: CCOC(=O)[C@H](CC(C)C)NP(=O)(CCCC(=O)N(C)OCc1ccc(C(C)C)cc1)N[C@@H](CC(C)C)C(=O)OCC
valueComparator: =
selectivity ratio: 0.15
--
smilesCode: CCOC(=O)[C@H](CC(C)C)NP(=O)(CCCC(=O)N(C)OCc1ccc2ccccc2c1)N[C@@H](CC(C)C)C(=O)OCC
valueComparator: =
selectivity ratio: 0.11
--
smilesCode: CCOC(=O)[C@H](CC(C)C)NP(=O)(CCCC(=O)N(C)OCCCCc1ccccc1)N[C@@H](CC(C)C)C(=O)OCC
valueComparator: =
selectivity ratio: 0.14
